- TARGET: T1, EsCas13d, nuclease-dead (Eubacterium siraeum, UniProt B0MS50, R295A;H300A;R849A;H854A)
- T1 sequence: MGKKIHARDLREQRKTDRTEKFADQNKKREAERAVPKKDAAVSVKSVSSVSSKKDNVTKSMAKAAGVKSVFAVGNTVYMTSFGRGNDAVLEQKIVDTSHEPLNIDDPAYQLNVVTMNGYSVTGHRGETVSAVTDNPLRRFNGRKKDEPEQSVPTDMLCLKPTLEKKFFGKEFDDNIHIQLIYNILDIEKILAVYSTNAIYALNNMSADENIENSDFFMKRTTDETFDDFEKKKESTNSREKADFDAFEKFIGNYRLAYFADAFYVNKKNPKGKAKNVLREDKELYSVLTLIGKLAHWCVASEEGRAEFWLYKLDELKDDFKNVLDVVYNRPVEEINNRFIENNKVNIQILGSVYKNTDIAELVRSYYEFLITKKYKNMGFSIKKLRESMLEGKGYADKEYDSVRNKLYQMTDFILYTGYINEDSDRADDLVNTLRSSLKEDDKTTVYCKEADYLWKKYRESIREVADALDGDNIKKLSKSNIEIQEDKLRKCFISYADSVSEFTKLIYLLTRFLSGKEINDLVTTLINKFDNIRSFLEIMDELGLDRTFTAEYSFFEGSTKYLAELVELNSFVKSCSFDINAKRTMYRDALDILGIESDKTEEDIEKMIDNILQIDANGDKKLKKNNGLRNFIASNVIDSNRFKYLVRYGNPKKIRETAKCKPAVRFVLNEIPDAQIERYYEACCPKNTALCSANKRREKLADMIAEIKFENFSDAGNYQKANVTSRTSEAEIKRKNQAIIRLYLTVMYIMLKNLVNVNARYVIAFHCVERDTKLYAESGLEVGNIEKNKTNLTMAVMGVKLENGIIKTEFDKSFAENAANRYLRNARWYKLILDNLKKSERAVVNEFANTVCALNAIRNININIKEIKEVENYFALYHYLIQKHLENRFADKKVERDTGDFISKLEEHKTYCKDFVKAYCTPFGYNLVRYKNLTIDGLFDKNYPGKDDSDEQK
- EXPERIMENTAL_PROTOCOL: crRNA (strand 1, pre-loaded); Mg2+; 40 mM Tris-HCl pH 7.5, 150 mM NaCl, 6 mM MgCl2, 1 mM DTT, 0.1% Tween-20, 0.2 mg/ml BSA; 25 C; 10 min per concentration, then washed
- CONDITION_SUMMARY: tags: His6-TwinStrep-SUMO cleaved; N-terminal SNAP kept (SNAP-Surface 488); label: 3' end held by stalled T7 RNA polymerase
PROPERTY_MEASURED: pKd
One number for each entry, as −log10 of the molar value.

Past entries and their recorded results:
BINDER | EXPERIMENTAL_VALUE
target 3 G19U,U22G (mixed) RNA 1: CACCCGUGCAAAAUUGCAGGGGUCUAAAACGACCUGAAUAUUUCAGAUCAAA RNA 2: GGGAAUGGAUCCACAUCUACGAAUUCGUUGUUUAUCUGAAAUAUUCAGGUCUGCAGAUCGGAAGAGCACACGU | 6.97
target 1 U3C,A14G (mixed) RNA 1: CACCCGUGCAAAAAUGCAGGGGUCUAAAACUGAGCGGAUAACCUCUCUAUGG RNA 2: GGGAAUGGAUCCACAUCUACGAAUUCGUACCAUAGAGGGGUUAUCCGCCCACCGAGAUCGGAAGAGCACACGU | 7.24

Continue with the binder presented below.
Quick one: pKd of target 1 insA 3' of 12,insA 3' of 3 (mixed) RNA 1: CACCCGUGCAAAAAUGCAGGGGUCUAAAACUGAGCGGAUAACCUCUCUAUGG RNA 2: GGGAAUGGAUCCACAUCUACGAAUUCGUACCAUAGAGAGGAUUAUCCGCUACACCGAGAUCGGAAGAGCACACGU ?
7.69

Taken from paper PMC10786891.
